absorption maximum values by entry
# Assay text: solvent given as SMILES
# Test context: in ClC(Cl)Cl
Use nm as the unit, but write only the number.

Some solved entries appear below for comparison.
Molecule	absorption maximum, nm
Ic1ccc(C2=C3C=CC4=[N+]3[B-]3(Oc5ccccc54)Oc4ccccc4-c4ccc2n43)cc1 (centres undefined)	630
CCN(CC)c1ccc2cc(-c3ccc(S(C)(=O)=O)cc3)oc(=O)c2c1	383
CCC1=C(C)C(=O)n2c1cc1c(C)c(CCC(=O)O)c(C)n1c2=O	428

Consider the record given below.
Q: Fill blank: measured absorption maximum of the molecule CCCCCCCCN1c2ccccc2Sc2cc(/C=C/c3ccc(N(c4ccc(/C=C/c5ccc6c(c5)Sc5ccccc5N6CCCCCCCC)cc4)c4ccc(/C=C/c5ccc(/C=C/c6ccc(N(c7ccc(/C=C/c8ccc(N(c9ccccc9)c9ccccc9)cc8)cc7)c7ccc(/C=C/c8ccc(N(c9ccccc9)c9ccccc9)cc8)cc7)cc6)c6nsnc56)cc4)cc3)ccc21 is ____.
Result: 534
